Counter-ions that a name gives are not always drawn.
OBSERVABLE: melting point

1) CN1CCc2nc(C(=O)N[C@@H]3CN(C(=O)C4CC(O)C4)CC[C@@H]3NC(=O)c3cc4cc(Cl)ccc4[nH]3)sc2C1 (relative stereo) (as salt: hydrochloride)
200 °C (dec.)
2) COC(=O)N1CC[C@H](NC(=O)c2cc3cc(Cl)ccc3[nH]2)[C@H](NC(=O)c2nc3c(s2)CN(C)CC3)C1 (relative stereo) (as salt: hydrochloride) [Example 129]
248 to 253 °C (dec.)

Entry CN1CCc2nc(C(=O)N[C@@H]3CCN(C(=O)OC(C)(C)C)C[C@@H]3NC(=O)c3cc4cc(Cl)ccc4[nH]3)sc2C1 (relative stereo) [Example 119] ; melting point = 187 to 189 °C (dec.)

Entry CCC(=O)N1CC[C@H](NC(=O)c2cc3cc(Cl)ccc3[nH]2)[C@H](NC(=O)c2nc3c(s2)CN(C)CC3)C1 (relative stereo) (as salt: hydrochloride) [Example 133] ; melting point = 214 to 228 °C (dec.)

Entry CC(=O)N1C[C@@H](NC(=O)c2cc3cc(Cl)ccc3[nH]2)[C@H](NC(=O)c2nc3c(s2)CN(C(C)C)CC3)C1 (as salt: hydrochloride) [Example 114] ; melting point = 254 to 258 °C (dec.)

###

# TARGET_DESC: human FXa (Homo sapiens)
# Construct: purchased Enzyme Research Labolatories, Inc
# PROTOCOL_NOTES: Determination of human FXa-inhibiting effect (IC50 value)
# Type: biochemical
# TEST_PARAMETERS: human FXa, substrate S-2222, absorbance at 405 nm, room temperature; read-out: Human FXa-inhibiting effect (IC50)
Counter-ions that a name gives are not always drawn.
OBSERVABLE: IC50 (nM)

(P) CCNC(=O)[C@H]1CC[C@H](NC(=O)c2cc3cc(Cl)ccc3[nH]2)[C@H](NC(=O)c2nc3c(s2)CN(C)CC3)C1 [Example 62, hydrochloride]
(Q) COCC(=O)N1CC[C@H](NC(=O)c2cc3cc(Cl)ccc3[nH]2)[C@H](NC(=O)c2nc3c(s2)CN(C)CC3)C1 (relative stereo) [Example 143, hydrochloride]
// which entry has the larger IC50 value, P or Q ? Provide the label of your selected option as the answer.
Q
(Q: 5.8 nM, P: 3.5 nM)

(I) COC(=O)[C@@H]1CC[C@H](NC(=O)c2cc3cc(Cl)ccc3[nH]2)[C@H](NC(=O)c2nc3c(s2)CN(C)CC3)C1
(II) CN1CCc2nc(C(=O)N[C@@H]3CCCC[C@@H]3NC(=O)c3ccc4cc(Cl)ccc4c3)sc2C1 (relative stereo) [Example 7, hydrochloride]
// which entry has the larger IC50 value, I or II ? Provide the label of your selected option as the answer.
II
(II: 83 nM, I: 4.2 nM)

###

Where a name gives a salt, the structure may show the parent alone.
OBSERVABLE: melting point

1. CN1CCc2nc(C(=O)N[C@@H]3CN(C(=O)C(C)(C)O)CC[C@@H]3NC(=O)c3cc4cc(Cl)ccc4[nH]3)sc2C1 (relative stereo)
190 °C (dec.)
2. COCC(=O)N1CC[C@H](NC(=O)c2cc3cc(F)ccc3[nH]2)[C@H](NC(=O)c2nc3c(s2)CN(C(C)C)CC3)C1 (relative stereo) (as salt: hydrochloride)
214 to 228 °C (dec.)
3. COCC(=O)N1CC[C@H](NC(=O)c2cc3cc(Cl)ccc3[nH]2)[C@H](NC(=O)c2nc3c(s2)CN(C)CC3)C1 (relative stereo) (as salt: hydrochloride) [Example 143]
214 to 228 °C (dec.)
4. CN1CCc2nc(C(=O)N[C@@H]3CS(=O)(=O)CC[C@H]3NC(=O)c3cc4cc(Cl)ccc4[nH]3)sc2C1 (relative stereo) (as salt: hydrochloride)
244 to 249 °C

Query compound follows.
Entry CN1CCc2nc(C(=O)N[C@@H]3CS(=O)(=O)CC[C@@H]3NC(=O)c3cc4cc(F)ccc4[nH]3)sc2C1 (relative stereo) (as salt: hydrochloride) ; melting point = 243 to 245 °C

###

Each item that follows carries a reported melting point.
Structures can show the parent of a compound that is named as a salt.

// solved cases for melting point follow
1. CN1CCc2nc(C(=O)N[C@@H]3CN(C(=O)C4CCCC4)CC[C@@H]3NC(=O)c3cc4cc(Cl)ccc4[nH]3)sc2C1 (relative stereo) (as salt: hydrochloride)
254 to 260 °C (dec.)
2. CN1CCc2nc(C(=O)N[C@@H]3CN(S(C)(=O)=O)CC[C@@H]3NC(=O)c3cc4cc(Cl)ccc4[nH]3)sc2C1 (relative stereo) (as salt: hydrochloride)
225 to 230 °C (dec.)

Query compound follows.
Entry CN1CCc2nc(C(=O)N[C@@H]3CN(C(=O)C4CCOCC4)CC[C@@H]3NC(=O)c3cc4cc(Cl)ccc4[nH]3)sc2C1 (relative stereo) (as salt: hydrochloride) ; melting point = 225 to 248 °C (dec.)

###

# TARGET_DESC: human FXa (Homo sapiens, UniProt P00742)
# Construct: purchased Enzyme Research Labolatories, Inc
# Sequence (P00742 235-488 limits assumed): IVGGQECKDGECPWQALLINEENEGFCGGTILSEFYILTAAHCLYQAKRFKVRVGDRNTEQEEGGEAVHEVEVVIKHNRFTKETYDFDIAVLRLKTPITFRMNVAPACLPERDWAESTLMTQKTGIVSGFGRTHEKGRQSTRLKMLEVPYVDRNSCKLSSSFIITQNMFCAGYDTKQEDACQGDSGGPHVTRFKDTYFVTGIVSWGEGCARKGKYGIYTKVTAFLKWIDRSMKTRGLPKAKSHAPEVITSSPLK
# Sequence (P00742 41-179 partner limits assumed): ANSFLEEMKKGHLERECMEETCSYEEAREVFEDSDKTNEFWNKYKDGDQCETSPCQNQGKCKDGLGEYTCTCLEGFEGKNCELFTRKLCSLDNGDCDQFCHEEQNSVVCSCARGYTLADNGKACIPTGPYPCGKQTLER
# PROTOCOL_NOTES: Determination of human FXa-inhibiting effect (IC50 value)
# Assay type: biochemical
# TEST_PARAMETERS: human FXa, substrate S-2222, absorbance at 405 nm, room temperature; read-out: Human FXa-inhibiting effect (IC50)
Structures can show the parent of a compound that is named as a salt.
OBSERVABLE: IC50 (nM)

1. CN1CCc2nc(C(=O)N[C@@H]3CN(S(=O)(=O)CC(=O)O)C[C@H]3NC(=O)c3cc4cc(Cl)ccc4[nH]3)sc2C1 [Example 101]
26

(I) CCOC(=O)N1CC[C@H](NC(=O)c2cc3cc(Cl)ccc3[nH]2)[C@H](NC(=O)c2nc3c(s2)CN(C)CC3)C1 (relative stereo) [Example 130, hydrochloride]
(II) CN1CCc2nc(C(=O)N[C@@H]3C[C@@H](C(=O)N(C)C)CC[C@@H]3NC(=S)C(=O)Nc3ccc(Cl)cn3)sc2C1 [Ex. 247]
// which entry has the larger IC50 value, I or II ? Provide the label of your selected option as the answer.
I
(I: 4.5 nM, II: 1.9 nM)

###

OBSERVABLE: melting point

Entry COCC(C)(C)C(=O)N1CC[C@H](NC(=O)c2cc3cc(Cl)ccc3[nH]2)[C@H](NC(=O)c2nc3c(s2)CN(C)CC3)C1 (relative stereo) [Example 147] ; melting point = 240 °C (dec.)

###

Each item that follows carries a reported melting point.
Counter-ions that a name gives are not always drawn.

// solved cases for melting point follow
1) CC(=O)N1CC[C@H](NC(=O)c2cc3cc(F)ccc3[nH]2)[C@H](NC(=O)c2nc3c(s2)CN(C)CC3)C1 (relative stereo) (as salt: hydrochloride)
202 °C (dec.)
2) COCC(=O)N1CC[C@H](NC(=O)c2cc3cc(Cl)ccc3[nH]2)[C@H](NC(=O)c2nc3c(s2)CN(C(C)(C)CO)CC3)C1 (relative stereo) (as salt: hydrochloride)
221 to 232 °C (dec.)
3) CN1CCc2nc(C(=O)N[C@@H]3CS(=O)(=O)CC[C@@H]3NC(=O)c3cc4cc(Cl)ccc4[nH]3)sc2C1 (relative stereo) (as salt: hydrochloride)
241 to 244 °C
4) COCCOC(=O)N1CC[C@H](NC(=O)c2cc3cc(Cl)ccc3[nH]2)[C@H](NC(=O)c2nc3c(s2)CN(C)CC3)C1 (relative stereo) (as salt: hydrochloride)
224 to 226 °C (dec.)
5) COCC(=O)N1CC[C@@H](NC(=O)c2cc3cc(Cl)ccc3[nH]2)[C@H](NC(=O)c2nc3c(s2)CN(C)CC3)C1 (as salt: hydrochloride)
213 to 230 °C

Entry CN1CCc2nc(C(=O)N[C@@H]3CN(C(=O)NC(C)(C)C)CC[C@@H]3NC(=O)c3cc4cc(Cl)ccc4[nH]3)sc2C1.Cl (relative stereo) ; melting point = 236 to 238 °C (dec.)

Entry CCNC(=O)N1CC[C@H](NC(=O)c2cc3cc(Cl)ccc3[nH]2)[C@H](NC(=O)c2nc3c(s2)CN(C)CC3)C1 (relative stereo) (as salt: hydrochloride) ; melting point = 221 to 235 °C (dec.)

Entry CN1CCc2nc(C(=O)N[C@@H]3CN(C(=O)C4CCC4)CC[C@@H]3NC(=O)c3cc4cc(Cl)ccc4[nH]3)sc2C1 (relative stereo) (as salt: hydrochloride) ; melting point = 271 to 275 °C (dec.)

###

# TARGET_DESC: human FXa (Homo sapiens, UniProt P00742)
# Construct: purchased Enzyme Research Labolatories, Inc
# PROTOCOL_NOTES: Determination of human FXa-inhibiting effect (IC50 value)
# Assay type: biochemical
# TEST_PARAMETERS: human FXa, substrate S-2222, absorbance at 405 nm, room temperature; read-out: Human FXa-inhibiting effect (IC50)
Where a name gives a salt, the structure may show the parent alone.
OBSERVABLE: IC50 (nM)

// solved cases for IC50 follow
1. CN1CCc2nc(C(=O)N[C@@H]3C[C@@H](C(=O)N(C)C)CC[C@@H]3NC(=O)C(=O)Nc3ccc(Br)cn3)sc2C1 [Example 204, hydrochloride]
1.5
2. CN1CCc2nc(C(=O)N[C@@H]3CN(C(=O)NC(C)(C)C)CC[C@@H]3NC(=O)c3cc4cc(Cl)ccc4[nH]3)sc2C1.Cl (relative stereo) [Example 164, hydrochloride]
4.8
3. CN1CCc2nc(C(=O)N[C@@H]3CCCC[C@@H]3NC(=O)c3cc4cc(Br)ccc4[nH]3)sc2C1 (relative stereo) [Example 11, hydrochloride]
92

(A) CN1CCc2nc(C(=O)N[C@@H]3C[C@@H](C(=O)N(C)C)CC[C@@H]3NC(=O)C(=O)Nc3ccc(F)cc3)sc2C1 [Example 194, hydrochloride]
(B) CN1CCc2nc(C(=O)N[C@@H]3C[C@@H](C(=O)N(C)C)CC[C@@H]3NC(=O)C(=O)Nc3ccc(Cl)cc3)sc2C1 [Example 191, hydrochloride]
Between item A and item B , which reported IC50 is smaller? Provide the label of your selected option as the answer.
B
(B: 1.2 nM, A: 5 nM)

Cited source: patent US7342014B2
